Tested on: IGROV-1
assay-method-text: NCI tumour cell line growth inhibition, 48 h
Active and inactive are the calls of the source. Rule as the data show it: active = GI50 up to about 1.1 µM and inactive = higher.
Item-by-item account of GI50

Please review the entries below; each comes with its answer.
Cn1c2ccccc2c(=O)c2c([N+](=O)[O-])ccc(NCCN)c21 ... 12.3 µM (inactive)
Cc1ccc(S(=O)(=O)Nc2ccccc2C(C)(C)C)cc1 ... 30.7 µM (inactive)
COc1cccc(N2C(=O)C3c4[nH]c5ccccc5c4C4c5ccccc5CCC4C3C2=O)c1 (configuration not stated) ... > 7.98 µM (inactive)
Cc1cc(/N=N/c2c(O)ccc3ccccc23)ccc1/N=N/c1cccc([N+](C)(C)C)c1 ... 2.87 µM (inactive)
Cn1c(N/N=C/c2ccc(Cl)cc2)nc(-c2ccc(Cl)cc2)c(C#N)c1=O ... 6.73 µM (inactive)

Request the reported GI50 associated with O=C1c2ccccc2C(=O)c2c(O)c(NCCNCCO)cc(O)c21 1.91 µM (inactive)

// next record NC(=O)c1nnc2ccc(F)cc2c1N > 100 µM (inactive)

// next record OC1C#CCSCC#C/C=C\1 (configuration not stated) > 100 µM (inactive)

====

System: HCT-116
assay-method-text: NCI tumour cell line growth inhibition, 48 h
The source made the active and inactive calls. No stated cut-off is given here; in the data, active = GI50 up to about 1.1 µM and inactive = higher.
Outcomes you can answer with include only these: Yes = active, No = inactive

Sample answers from the record:
C=C1C(=O)O[C@H]2C(=O)[C@H](C)CCC/C(C)=C/CC[C@@]3(C)O[C@@H]3C[C@@H]12 ... Yes
Cc1ccc2cccc(OC(=O)c3cc4c(cc3Cl)Sc3nccn3S4(=O)=O)c2n1 ... No
CCS(CC)(CC)CC1CCCC2=CCC(P(=O)(c3ccccc3)c3ccccc3)CC21 (stereo not given) ... No
COCn1cnc2c(=O)nc(SC)n(-c3ccccc3)c21 ... No

What is the recorded call for this molecule in the test? C=CC(=O)N1C/C(=C\c2ccc(Cl)cc2)C(=O)/C(=C/c2ccc(Cl)cc2)C1 Yes

====

Tested on: M19-MEL
assay-method-text: NCI tumour cell line growth inhibition, 48 h
The source made the active and inactive calls. Cut-off read from the data, not from the text of the source: active = GI50 up to about 1.1 µM and inactive = higher.
Outcomes you can answer with include only these: active, inactive

Sample answers from the record:
O=C1OC(c2ccccc2)=N/C1=C/NC(CO)C(=O)O (configuration not stated) ... inactive
Cc1cc2c3ccccc3n3c2c2c1OC1(C)CCC(C2C1)C3(C)C (configuration not stated) ... inactive
NCCCCCS(=O)(=O)O ... inactive
N[C@H](COCc1ccccc1)c1ccccc1 ... inactive
CSc1nc(NC2OC(CO)C(O)C(O)C2O)c(N)c(=O)n1C (configuration not stated) ... inactive
COC1=CC(=O)C2C(C1=O)C(c1ccc(OC)c(OC)c1)[C@H]2C (some centres not stated) ... inactive
CC(=O)OCc1cc(OC(C)=O)cnc1COC(C)=O ... inactive
CC1CC(=O)c2c(ccc3c2C(=O)c2cccc(O)c2C3=O)C1 (configuration not stated) ... inactive
N#Cc1cc(NC(=O)c2ccccc2)c(=O)n2c1[nH]c1ccccc12 ... inactive
COC1=CC(=O)[C@]2(C)[C@H](C1=O)C(C)[C@H]2c1ccc(OC)cc1 (some centres not stated) ... inactive

What is the recorded call for this compound in the test? CCCNCC(=O)O[C@]1(CC)C(=O)OCc2c1cc1n(c2=O)Cc2cc3ccccc3nc2-1 active

// next record CCCC(O)c1ccc2[nH]c3c(C)cc([N+](=O)[O-])c(C)c3c2c1 (configuration not stated) inactive

// next record O=C(Oc1ccc2c(-c3ccccc3)c(C(=O)Nc3ccc(Cl)cc3)c(=O)oc2c1)c1ccccc1 inactive

// next record Clc1ccc2c(Cl)ncnc2c1 inactive

// next record CC(=O)C(=O)NC1/C=C(C)\C=C/C(O)C/C=C(C)\C=C/C(O)CC2OC(=O)C1(C)C(=O)C2C (configuration not stated) inactive

// next record C[n+]1ccc(Nc2ccc(NC(=O)c3ccc(Nc4cc[n+](C)c5ccc([N+](=O)[O-])cc45)cc3[N+](=O)[O-])cc2)cc1 inactive

// next record Cn1c2ccccc2c(=O)c2c([N+](=O)[O-])ccc(NCCN)c21 inactive

// next record O=C1OC(=O)C2C1C1(c3ccccc3)OC2(c2ccccc2)c2c(Br)c(Br)c(Br)c(Br)c21 (configuration not stated) inactive

// next record CNCc1cc(OC)ccc1-c1ccc(OC)c(OC)c1OC inactive

// next record O=C1/C(=C/c2ccc(C(=O)O)cc2)CNC/C1=C\c1ccc(C(=O)O)cc1 inactive

// next record CCCCCCCCCCCC[N+]12CC[N+](CCN)(CC1)CC2 inactive

// next record O=C1c2ccccc2C(=O)c2c1ccc1conc21 inactive

====

Test system: UACC-257
assay-method-text: NCI tumour cell line growth inhibition, 48 h
Activity calls are given as the source filed them. No stated cut-off is given here; in the data, active = GI50 up to about 1.1 µM and inactive = higher.
Outcomes you can answer with include only these: active, inactive

Sample answers from the record:
C=C(Cl)C(C)(Cl)CCC(Cl)C(C)(C)Cl (configuration not stated) ... inactive
COc1ccc(/C=C/C(=O)c2cc(C(C)(C)C)c(O)c(C(C)(C)C)c2)cc1OC ... inactive
Cc1ccc2cccc(OC(=O)c3cc4c(cc3Cl)Sc3nccn3S4(=O)=O)c2n1 ... inactive
Cc1c(CCOC=O)c(=O)[nH]c2nncn12 ... inactive
C[Si](C)(C)/N=C1\N2C(=NC1(C(F)(F)F)C(F)(F)F)Sc1ccccc12 ... inactive

What is the recorded call for this compound in the test? CSC(=S)N(C)c1nc(N(C)C)s[s+]1 inactive

// next record O=C(Nc1ccc(F)cc1)C(=O)C(C1OC(=O)c2ccccc21)[N+](=O)[O-] (configuration not stated) inactive

// next record CCCCNC(=S)Nn1c(-c2ccccc2)nc2ccccc2c1=O inactive

// next record CCS(CC)(CC)CC1CCCC2=CCC(P(=O)(c3ccccc3)c3ccccc3)CC21 (configuration not stated) inactive

// next record O=S1(=O)CCN(Cc2ccccc2)/C1=N\S(=O)(=O)c1ccc(Cl)cc1 inactive

====

Test system: SNB-75
assay-method-text: NCI tumour cell line growth inhibition, 48 h
Calls of active or inactive are those of the source. Rule as the data show it: active = GI50 up to about 1.1 µM and inactive = higher.
Outcomes you can answer with include only these: label 1 (active), label 0 (inactive)

Sample answers from the record:
CN1C2=C(CC3=C1CC(C)(C)CC3=O)C(=O)CC(C)(C)C2 ... label 0
CC(=O)OCc1cc(OC(C)=O)cnc1COC(C)=O ... label 0
COC(C/C(=C/CO[Si](C(C)C)(C(C)C)C(C)C)C(=O)N(C(=O)OC(C)(C)C)c1ccccc1I)OC ... label 0
CC(=O)N1C(=O)/C(=C\C(=O)c2ccc(Cl)cc2)c2ccccc21 ... label 0
O=S1(=O)CCN(Cc2ccccc2)/C1=N\S(=O)(=O)c1ccc(Cl)cc1 ... label 0
COc1ccc(C[C@H](N)C(=O)NC2C(CO)OC(n3cnc4c(N(C)C)ncnc43)C2O)cc1 (some centres undefined) ... label 1
C1=CC=C2NCCCCCCC/N=C3/C=CC=CC=C3NCCCCCCC/N=C\2C=C1 ... label 0
COc1cccc2c1OC1(C=C2)Oc2ccccc2C(=O)N1C (centres undefined) ... label 0

Now, please, on to the next compound.
What is the recorded call for this compound in the test? C=CCOC(=O)NC1C(OC(C)[C@@H](NC(=O)OCc2ccccc2)C(=O)OC(C)(C)C)OC(COC(C)=O)C(OC(C)=O)C1OC(C)=O (some centres undefined) label 0

====

Item-by-item account of GI50
Tested on: SK-MEL-2
assay-method-text: NCI tumour cell line growth inhibition, 48 h
The source made the active and inactive calls. Rule as the data show it: active = GI50 up to about 1.1 µM and inactive = higher.

Please review the entries below; each comes with its answer.
CCCN1C(=O)CN(S(=O)(=O)c2ccc(Cl)cc2)C1=O ... > 100 µM (inactive)
COc1ccc(CNc2nc3cc(C(F)(F)F)ccc3nc2C(=O)O)cc1OC ... 23.2 µM (inactive)
N#CC(NCCc1ccccc1)c1ccc(C(C#N)NCCc2ccccc2)cc1 (stereo unspecified) ... > 100 µM (inactive)
C[Si](C)(C)/C=C/CCC(C=O)(CCCl)c1ccccc1 (stereo unspecified) ... 14.8 µM (inactive)
COc1ccc2[nH]c3c(c2c1)CCN(C)CC3 ... > 100 µM (inactive)

Request the reported GI50 associated with COc1ccc2[nH]c3c(C)c4c(c(C)c3c2c1)CN(C)CC4 17.2 µM (inactive)

====

System: MDA-MB-435
assay-method-text: NCI tumour cell line growth inhibition, 48 h
The source made the active and inactive calls. Rule as the data show it: active = GI50 up to about 1.1 µM and inactive = higher.
Item-by-item account of GI50

Nn1c(-c2ccccc2)n[nH]c1=O ... > 100 µM (inactive)
COC(=O)/C(=N\N)C(C(=O)C(=O)Nc1cc(Cl)ccc1Cl)c1nc2ccc([N+](=O)[O-])cc2nc1O (stereo unspecified) ... > 100 µM (inactive)
S=C1CC(c2ccc(Cl)cc2)Sc2ccccc2N1 (stereo unspecified) ... 87.1 µM (inactive)
CCCCCCCCCCCCCCCCP(=O)(O)OCC(N)C(=O)O (stereo unspecified) ... 37.3 µM (inactive)
O=C1[C@@H]2[C@@H](c3ccccc3)[C@]2(Cl)C(=O)[C@H]2[C@H](c3ccccc3)[C@@]12Cl ... > 100 µM (inactive)
COC(=O)C(=O)C(C(=O)OC)C(=O)C(=O)Nc1c(Cl)cc([N+](=O)[O-])cc1Cl (stereo unspecified) ... > 100 µM (inactive)
COc1ccc(CNc2nc3cc(C(F)(F)F)ccc3nc2C(=O)O)cc1OC ... 26.7 µM (inactive)
CNC(=S)N/N=C(/C)CCC/C(C)=N/NC(=S)NC ... > 71.8 µM (inactive)

Proceed to the following item.
Request the reported GI50 associated with O=C(O)c1nc2cc(C(F)(F)F)ccc2nc1Nc1ccc(F)cc1 7.71 µM (inactive)
